experiment: Aqueous solubility, pION method; settings: pH 7.4, aqueous solubility (pH 7.4, μg/mL), Table 5; pH 7.4, mean ± SD, pION method

compound | censor_symbol | solubility (µg/mL)
O=C(O)c1cc(-c2ccc(C34CCN(CC3)CC4)cc2)c2ccc(-c3ccc(C(F)(F)F)cc3)cc2c1 [Compound 17] | = | 0.44
O=C(O)c1cc(-c2ccc(C34CCN(CC3)CC4)cc2)cc(-n2cc(-c3ccc(C(F)(F)F)cc3)nn2)c1 [Compound 18] | < | 0.1

---

molecular target: hP2Y14R (Homo sapiens, UniProt Q15391); assay type: binding; details: IC50 (μM), Table 1B; cells that print only footnote mark c
Sequence (Q15391 whole entry): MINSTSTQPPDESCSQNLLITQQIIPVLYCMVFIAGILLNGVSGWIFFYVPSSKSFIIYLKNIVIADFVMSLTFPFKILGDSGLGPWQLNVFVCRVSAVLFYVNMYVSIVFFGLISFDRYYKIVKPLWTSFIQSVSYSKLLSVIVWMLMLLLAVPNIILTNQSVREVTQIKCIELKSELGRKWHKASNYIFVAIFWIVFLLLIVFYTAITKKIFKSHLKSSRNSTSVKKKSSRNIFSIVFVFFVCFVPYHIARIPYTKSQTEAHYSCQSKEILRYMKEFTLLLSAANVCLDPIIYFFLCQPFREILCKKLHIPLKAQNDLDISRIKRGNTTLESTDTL

molecule | IC50
O=C(O)c1cc(NC(=O)C23C4C5C2C2C3C4C52CO)cc(-c2ccc(C3CCNCC3)cc2)c1 (stereo not shown) | > 100 µM
